# ASSAY_REMARKS: NCI Yeast Anticancer Drug Screen. Data for the bub3 strain (AID 167)
# MEASUREMENT_SETUP: S. cerevisiae bub3 mutant strain, at 50.0 µM
This is part of a sample that, as a whole, favours compounds with a hit. Of some 79,000 tested, about 15% had one in any assay. The source made the active and inactive calls. Cut-off read from the data, not from the text of the source: active = growth inhibition above about 70%; inactive = the rest. Where a SMILES comes first, the peptide text is derived from it. [ ]: non-standard residue; d: D form. Ac5c = NC1(C(=O)O)CCCC1
Outcome (select one): 1 (active), -1 (inactive)

Use these answered entries as a reference point.
N#Cc1c(C(=O)NN)c2c(-c3ccc4ccccc4c3)n[nH]c(=O)c2[nH]c1=O = -1
Cc1cc(N(CCC#N)CCC#N)ccc1/C=C\C(=O)Nc1ccccc1 = -1
CCCCCCc1cn([C@H]2C[C@H](O)[C@@H](CO)O2)c(=O)[nH]c1=O = -1
CC1CC(=O)N2CCCNC2=C1C#N (stereo unspecified) = -1
CNC(=O)NCCc1c[nH]c2ccccc12 = -1
CC(=O)OCC1OC(n2ncnc2CI)C(OC(C)=O)C(OC(C)=O)C1OC(C)=O (stereo unspecified) = -1
CC1CN(c2ccccc2)NC1=O (stereo unspecified) = -1
ClC(c1ccccc1)(c1ccccc1)C(Cl)(c1ccccc1)c1ccccc1 = -1
BrC1C2=C(c3ccccc31)C(Br)c1ccccc12 (stereo unspecified) = -1
CC1=C2N3C[C@@H](n4c(=O)n(C)c(=O)n43)C23CCC1n1c(=O)n(C)c(=O)n13 = -1

stdin: Please state the recorded outcome for this molecule: C=CCC(C(=C)C)(C(=O)OCC)C(=O)OCC
stdout: -1

stdin: Please state the recorded outcome for this molecule: COc1ccc2ccccc2c1C1=NC(C)(C)CO1
stdout: -1

stdin: Please state the recorded outcome for this molecule: O=C(O)C(Cc1ccc(O)cc1)N=Cc1nc(-c2ccccc2)oc1O (stereo unspecified)
stdout: -1

stdin: Please state the recorded outcome for this molecule: [N-]=[N+]=NCC1OCOC1C1OCOC1CN=[N+]=[N-] (stereo unspecified)
stdout: -1

stdin: Please state the recorded outcome for this molecule: C=C1C(C)C2C(Cc3ccccc3)NC(=O)C23OC(=O)/C=C\CC(=O)CCC(C)C/C=C/C3C1O (stereo unspecified)
stdout: 1

stdin: Please state the recorded outcome for this molecule: COC(=O)C1(NC(=O)C(C)NC(=O)C(CCCCN)NC(=O)C(CC(C)C)NC(C)=O)CCCC1 (stereo unspecified) (Ac-LKA[Ac5c]-OMe; configuration not given here)
stdout: -1

stdin: Please state the recorded outcome for this molecule: CNCCCCCCNc1cc(OC)cc2cccnc12
stdout: -1

---

Quick reference for growth inhibition among some compounds
# ASSAY_REMARKS: NCI Yeast Anticancer Drug Screen. Data for the rad50 strain (AID 155);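 note: 0% = growth of vehicle-only cultures of the same strain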
# MEASUREMENT_SETUP: S. cerevisiae rad50 strain growth inhibition; at 50.0 µM; active compounds read high
About 79,000 compounds went through this panel and 15% of them were active in at least one assay; those are over-represented in the sample as a whole.
Unit % implied. Number only.

CC1(C)C(=O)CC1C(=O)O (configuration not stated) = 4.55

stdin: # return recorded growth inhibition for entry Cn1c2nc(-[n+]3ccc(N4CCOCC4)cc3)nc-2c([O-])n(C)c1=O
stdout: -20.8

stdin: # return recorded growth inhibition for entry C=CCn1c(SCc2ccccc2)nccc1=O
stdout: 25.1

stdin: # return recorded growth inhibition for entry C=CCOC(=O)CCC(C#N)(C#N)CCC(=O)OCC=C
stdout: -9.55

---

# ASSAY_REMARKS: NCI Yeast Anticancer Drug Screen. Data for the rad50 strain (AID 155);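 note: 0% = growth of vehicle-only cultures of the same strain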
# MEASUREMENT_SETUP: S. cerevisiae rad50 strain growth inhibition; at 50.0 µM; active compounds read high
Compounds without any hit were thinned out: in the full panel of roughly 79,000, 15% have a hit.
Label NOT MET if growth inhibition falls below -10%; label MET in every other case.

Use these answered entries as a reference point.
CS(=O)(=O)C(C#N)S(C)(=O)=O = MET
COc1ccc(OC)c(C(N)=O)c1 = MET
Nc1ncnc2c1ncn2-c1ccc(N(CCO)CCO)cc1 = MET

Next molecule, please.
stdin: Hi, just wondering whether CCCC1(C)COC(C)(CCC)OC1 (centres undefined) shows growth inhibition of -10% or higher.
stdout: NOT MET

---

# ASSAY_REMARKS: NCI Yeast Anticancer Drug Screen. Data for the sgs1 mgt1 strain (AID 161);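 note: 0% = growth of cultures given vehicle only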
# MEASUREMENT_SETUP: S. cerevisiae sgs1 mgt1 strain, at 50.0 µM, active compounds read high
Compounds without any hit were thinned out: in the full panel of roughly 79,000, 15% have a hit.
MEASUREMENT_KIND: growth inhibition (%)
Unit % implied. Number only.

COc1ccc(C2(C(OC)OC)NC(=O)NC2=O)cc1 (centres undefined) = -8.8
COc1ccc2c(c1C)OC(C)C2=O (centres undefined) = -3.9
COc1nc2ccccc2nc1OC = -5.5

Attention now shifts to the item below.
stdin: # return recorded growth inhibition for entry O=c1cc(-c2ccccc2)[nH]c2ncccc12
stdout: -37.1

---

# ASSAY_REMARKS: NCI Yeast Anticancer Drug Screen. Data for the mec2-1 strain (AID 157)
# MEASUREMENT_SETUP: S. cerevisiae mec2-1 strain, at 50.0 µM, active compounds read high
Compounds without any hit were thinned out: in the full panel of roughly 79,000, 15% have a hit.
MEASUREMENT_KIND: growth inhibition (%)
Unit % implied. Number only.

Solved cases (8 shown):
COC(=O)c1nc(N)nc(C(=O)OC)c1C(=O)c1ccccn1 = -19.2
CCOC(=O)NC(=S)Nc1nonc1-c1ccccc1 = 2
CN(C)NC(=O)/C=C\C(=O)O = -17.4
O=C1CCC2c3ccccc3C(=O)C2C1 (centres undefined) = 4.2
CCOC(=O)C1C(c2ccc(Br)cc2)N(Cc2ccccc2)C(c2ccc(Br)cc2)C(C(=O)OC)S1(=O)=O (centres undefined) = -49.5
O=c1c(O)c(O)c1=O = -7
CCNc1ncnc2c1cnn2C1CCCCC1 = -7.15
CC(C)c1ccccc1OC(=O)NC1CCCCC1 = 20.7

stdin: # return recorded growth inhibition for entry Cc1cc(/C=N/NC(=O)c2ccccc2NC(=O)c2ccccc2Cl)ccc1O
stdout: 9.8

stdin: # return recorded growth inhibition for entry CCCCCSC
stdout: -12.1

stdin: # return recorded growth inhibition for entry CCOC(=O)Nc1n[nH]nc1Cl
stdout: -10.1

stdin: # return recorded growth inhibition for entry COc1cc(/C=N/N=C(\N)NO)cc(OC)c1OC
stdout: 3.85

stdin: # return recorded growth inhibition for entry Cc1cc[c]([Sb]2([c]3ccc(C)cc3)([c]3ccc(C)cc3)[NH]c3cc(C(c4ccccc4)(c4ccccc4)c4ccccc4)cc(C(C)(C)C)c3[O]2)cc1
stdout: 14.3

stdin: # return recorded growth inhibition for entry OCc1c(CO)c(-c2ccc(Cl)cc2)n2c1CCC2
stdout: -15

stdin: # return recorded growth inhibition for entry COC1=C(c2ccccc2)P(=O)(Cc2ccccc2)C(C)C1 (centres undefined)
stdout: 12.2

stdin: # return recorded growth inhibition for entry CN(C(=O)c1ccccc1)C1CCCC(=O)CC1 (centres undefined)
stdout: -10

---

# ASSAY_REMARKS: NCI Yeast Anticancer Drug Screen. Data for the sgs1 mgt1 strain (AID 161);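 note: 0% = growth of cultures given vehicle only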
# MEASUREMENT_SETUP: S. cerevisiae sgs1 mgt1 strain, at 50.0 µM, active compounds read high
About 79,000 compounds went through this panel and 15% of them were active in at least one assay; those are over-represented in the sample as a whole.
MEASUREMENT_KIND: growth inhibition (%)
Unit % implied. Number only.

Solved cases (2 shown):
COc1ccc(N2C(=O)CCC2=S)cc1 = 6.8
O=C(Nc1ccc2c(c1)C(O)c1ccccc1-2)C(F)(F)F (centres undefined) = 18.9

stdin: # return recorded growth inhibition for entry CC(=O)N1CN=C2Sc3ccccc3N2C1
stdout: 8.45

stdin: # return recorded growth inhibition for entry CC(C)(NC(=O)OCc1ccccc1)C(=O)OC(=O)C(C)(C)NC(=O)OCc1ccccc1
stdout: 5.85

stdin: # return recorded growth inhibition for entry C=C1CCC(OC(C)=O)C2(C)C(OC(C)=O)CC3OC3(C)C2C(OC(C)=O)C2C(C)C(=O)OC2C1Cl (centres undefined)
stdout: 1.55

stdin: # return recorded growth inhibition for entry Cc1c(C)c(CO)c(C)c(C)c1CO
stdout: 15.8

stdin: # return recorded growth inhibition for entry OCc1ccc(O)c(CO)n1
stdout: -3.35

stdin: # return recorded growth inhibition for entry O=C(SCSC(=O)c1ccccc1)c1ccccc1
stdout: -4.75

stdin: # return recorded growth inhibition for entry O=C(NCC(CC(NC(=O)c1ccccc1)C(=O)O)NC(=O)c1ccccc1)c1ccccc1 (centres undefined)
stdout: -11.4

---

Quick reference for growth inhibition among some compounds
# ASSAY_REMARKS: NCI Yeast Anticancer Drug Screen. Data for the cln2 rad14 strain (AID 165);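 note: 0% = growth equal to vehicle treated cultures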
# MEASUREMENT_SETUP: S. cerevisiae cln2 rad14 strain, at 50.0 µM, active compounds read high
# Description: Growth inhibition of yeast strains with defined genetic alterations is measured as a screen for potential anti-cancer activity. Selected strains with alterations in DNA damage repair or cell cycle control were exposed to compounds and growth inhibition was measured relative to vehicle treated controls. The strain used in this assay is cln2 rad14
Compounds without any hit were thinned out: in the full panel of roughly 79,000, 15% have a hit.
Unit % implied. Number only.

Solved cases (8 shown):
Cc1ccccc1I = 9
COc1ccc(C(=O)Nc2ccn(CCOC(=O)c3ccc(OC)cc3)c(=O)n2)cc1 = -4
CC1CCC2(C)OC1OC2CN (stereo unspecified) = -0.55
O=C1CCCCCCCCCCC1Sc1ccccc1 (stereo unspecified) = 3.1
Cc1ccc2c(c1-c1ccccc1)C(=O)OC2 = 5.35
COC(=O)/C=C(/C(=O)OC)C1(C)c2cc(C(=O)OC)c(C(=O)OC)c(N)c2C(=N)N1c1ccccc1 (stereo unspecified) = -12.4
CC1c2ccc3ccccc3c2C(=O)c2cccc(Cl)c21 (stereo unspecified) = -42.6
Cc1ccc(C(C(=O)O)C(Cl)(Cl)Cl)cc1 (stereo unspecified) = 0.7

stdin: # return recorded growth inhibition for entry Nc1nc2ncc(CCCNc3ccc(C(=O)NC(CCC(=O)O)C(=O)O)cc3)nc2c(=O)[nH]1 (stereo unspecified)
stdout: 10.2

stdin: # return recorded growth inhibition for entry CC12CCC(/C(=C/N3CCCCC3)C1=O)C2(C)C (stereo unspecified)
stdout: -17.8

stdin: # return recorded growth inhibition for entry COc1cc2c(c(OC)c1OC)CCC1(C)C(=O)NN=C21 (stereo unspecified)
stdout: -1.55

The reported measurements were obtained from PubChem BioAssay (NCI).
